target: Casein kinase I isoform gamma-1 (Homo sapiens) (UniProt Q9HCP0); conditions: at 0.1 µM;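 further: reported as mean inhibition, part of GSK PKIS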
Sequence (Q9HCP0 whole entry, looked up, canonical isoform): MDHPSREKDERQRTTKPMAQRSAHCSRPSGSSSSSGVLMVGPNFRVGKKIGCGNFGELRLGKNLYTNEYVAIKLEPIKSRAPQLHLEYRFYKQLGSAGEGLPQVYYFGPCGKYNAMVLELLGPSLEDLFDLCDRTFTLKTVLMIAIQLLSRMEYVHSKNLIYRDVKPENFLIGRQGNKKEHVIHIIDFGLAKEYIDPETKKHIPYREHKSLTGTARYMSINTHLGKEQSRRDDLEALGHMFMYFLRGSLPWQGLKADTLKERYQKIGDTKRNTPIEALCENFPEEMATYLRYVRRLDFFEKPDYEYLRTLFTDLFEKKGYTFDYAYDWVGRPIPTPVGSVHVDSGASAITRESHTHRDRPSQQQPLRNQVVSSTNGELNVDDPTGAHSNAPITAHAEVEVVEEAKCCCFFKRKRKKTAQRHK
Known inhibition of a selection of molecules
Quick reminder: number only, in %, skip the unit.

Past entries and their recorded results:
testSmiles: CN(C)c1ccc2c(c1)/C(=C/Nc1ccc(S(N)(=O)=O)cc1)C(=O)N2
attributeMeasured: inhibition
dataValue: 1.12

testSmiles: COc1cc2ncn(-c3cc(OCc4ccccc4C(F)(F)F)c(C(C)=O)s3)c2cc1OC
attributeMeasured: inhibition
dataValue: 2.77

testSmiles: Fc1ccc(-c2ncn(C3CCNCC3)c2-c2ccnc(Oc3ccc(Oc4ccccc4)cc3)n2)cc1
attributeMeasured: inhibition
dataValue: 6.35

testSmiles: O=C(Nc1n[nH]c2nc(-c3ccco3)ccc12)C1CC1
attributeMeasured: inhibition
dataValue: 0.09

testSmiles: NS(=O)(=O)c1ccc(Nc2cc(-c3ccc(O)c(F)c3)n[nH]2)cc1
attributeMeasured: inhibition
dataValue: -2

testSmiles: O=C1Nc2ccc(I)cc2C1=Cc1cc(Br)c(O)c(Br)c1
attributeMeasured: inhibition
dataValue: 3.7

For Clc1ccc(CNc2nccc(-c3cnn4ncccc34)n2)cc1 , what is its reported inhibition?
0.12

For CS(=O)(=O)CCNCc1ccc(-c2ccc3ncnc(Nc4ccc(OCc5ccccc5)c(Br)c4)c3c2)o1 , what is its reported inhibition?
0.63

// data source = ChEMBL document CHEMBL1961873
